Cited source: patent US20160264536A1

Target: human PDE2A3 enzyme (Homo sapiens, UniProt O00408)
Construct: Human PDE2A3 full-length gene was transduced into Sf9; His-tag; made in house; host or cells: Sf9 insect cells
Sequence (O00408 whole entry): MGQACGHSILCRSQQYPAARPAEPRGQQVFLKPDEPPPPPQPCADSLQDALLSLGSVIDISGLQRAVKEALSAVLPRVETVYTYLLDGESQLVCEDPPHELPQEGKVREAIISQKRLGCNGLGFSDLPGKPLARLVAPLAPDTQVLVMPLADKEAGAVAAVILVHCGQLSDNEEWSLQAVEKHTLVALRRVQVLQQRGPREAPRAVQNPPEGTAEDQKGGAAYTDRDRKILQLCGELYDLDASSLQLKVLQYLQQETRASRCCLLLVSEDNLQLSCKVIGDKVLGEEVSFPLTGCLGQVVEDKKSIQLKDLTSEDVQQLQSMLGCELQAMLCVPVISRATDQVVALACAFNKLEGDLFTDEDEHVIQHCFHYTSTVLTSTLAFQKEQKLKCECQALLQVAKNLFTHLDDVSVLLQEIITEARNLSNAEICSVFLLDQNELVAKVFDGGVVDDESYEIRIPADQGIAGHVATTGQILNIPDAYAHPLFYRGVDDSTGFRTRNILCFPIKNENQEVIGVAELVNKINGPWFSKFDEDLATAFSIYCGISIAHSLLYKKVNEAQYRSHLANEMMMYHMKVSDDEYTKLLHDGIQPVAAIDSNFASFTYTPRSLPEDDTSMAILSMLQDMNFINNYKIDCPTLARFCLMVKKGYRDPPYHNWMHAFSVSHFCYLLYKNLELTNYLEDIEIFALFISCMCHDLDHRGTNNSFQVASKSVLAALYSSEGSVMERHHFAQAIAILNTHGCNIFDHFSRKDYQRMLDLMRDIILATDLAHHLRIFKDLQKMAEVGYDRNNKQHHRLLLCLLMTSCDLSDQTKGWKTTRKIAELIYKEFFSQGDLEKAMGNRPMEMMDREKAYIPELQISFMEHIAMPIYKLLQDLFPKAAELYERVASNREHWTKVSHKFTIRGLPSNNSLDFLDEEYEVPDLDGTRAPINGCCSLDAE
Assay: PDE enzyme inhibitory assay (SPA, [3H]cGMP substrate)
Format: biochemical
Conditions: compound 1 μM, substrate [3H]cGMP 77 nM, read-out: inhibitory rate (%) (1 μM)
Test readout: inhibition at 1 µM (%)

# Compound, inhibition at 1 µM [%]
data = [
    ("COC[C@@H](NC(=O)c1cc(=O)[nH]c(N2CC[C@H](OC)C2)n1)c1ccc(OC(F)(F)F)cc1", 97),
    ("COC[C@@H](NC(=O)c1cc(=O)[nH]c(-c2ncc(OC(F)F)cc2F)n1)c1ccc(OC(F)(F)F)c(F)c1", 92),
    ("CC(C)(O)C(NC(=O)c1cc(=O)[nH]c(N2CCCC2)n1)c1ccc(OC(F)(F)F)c(F)c1 (stereo not shown)", 99),
    ("CC(C)(O)[C@@H](NC(=O)c1cc(=O)[nH]c(C2CC2)n1)c1ccc(OC(F)(F)F)c(F)c1", 94),
    ("COC[C@@H](NC(=O)c1cc(=O)[nH]c(-c2ccco2)n1)c1ccc(OC(F)(F)F)c(F)c1", 95),
    ("COC[C@@H](NC(=O)c1cc(=O)[nH]c(-c2ccoc2)n1)c1ccc(OC(F)(F)F)c(F)c1", 102),
    ("CCOc1cnc(-c2nc(C(=O)N[C@H](COC)c3ccc(OC(F)(F)F)c(F)c3)cc(=O)[nH]2)c(OCC)c1", 105),
]

###

Molecular target: human PDE2A3 enzyme (Homo sapiens, UniProt O00408)
Construct: Human PDE2A3 full-length gene was transduced into Sf9; His-tag; made in house; host or cells: Sf9 insect cells
Experiment: PDE enzyme inhibitory assay (SPA, [3H]cGMP substrate)
Format: biochemical
Details: compound 1 μM, substrate [3H]cGMP 77 nM, read-out: inhibitory rate (%) (1 μM)
Test readout: inhibition at 1 µM (%)

# Smiles, inhibition at 1 µM [%]
data = [
    ("COC[C@@H](NC(=O)c1cc(=O)[nH]c(-c2ccccc2)n1)c1ccc(OC(F)(F)F)c(F)c1", 98),
    ("COC[C@@H](NC(=O)c1cc(=O)[nH]c(C2(C)CC2)n1)c1ccc(OC(F)(F)F)cc1", 100),
    ("COC[C@@H](NC(=O)c1cc(=O)[nH]c(-c2ncc(C3CC3)cc2OC)n1)c1ccc(OC(F)(F)F)c(F)c1", 99),
    ("COC[C@@H](NC(=O)c1cc(=O)[nH]c(-c2ccsc2)n1)c1ccc(OC(F)(F)F)c(F)c1", 103),
]
